Give measured TGI for each item. Keep answers brief.
- Test system: TK-10 renal
- protocol details: NCI tumour cell line growth inhibition, 48 h
Give bare numbers, in µM.

| chemical smiles | experimental result |
| --- | --- |
| CN(C)c1ccc(/C=C/C(=O)c2ccccc2)cc1Br | 74.2 |

Now examine the next entry.
Item under review: `C#CC[C@@H]1C[C@]2(C)[C@H]3CC[C@@H]4[C@H]5[C@H](C(=C)C)CC[C@]5(C(=O)O)CC[C@@]4(C)[C@]3(C)CC[C@H]2C(C)(C)[C@H]1O` . Reported TGI?
4.44

###

- Test system: UACC-257 melanoma
- protocol details: NCI tumour cell line growth inhibition, 48 h
measurement type: TGI

Consider the following illustrative entries.
| compound | TGI |
| --- | --- |
| CC(=O)c1ccc(N2CCN(c3c(O)c4c(c(O)c3Cl)C(=O)C=CC4=O)CC2)cc1 | 24.1 µM |
| O=C1OC(c2ccccc2)C2CC3CC4(CCC3CN12)OCCO4 (stereo not given) | > 100 µM |
| Nc1nc(=O)n(C2CC(O)C(O)C(CO)O2)cc1F (stereo not given) | > 100 µM |
| O=C(Nc1ccc(Cl)c(Cl)c1)C(=O)C(C1OC(=O)c2ccccc21)[N+](=O)[O-] (stereo not given) | > 100 µM |
| CCOC(=O)N1CC2(C(=O)OC)C=CC1C(C(=O)OC)C2 (stereo not given) | > 100 µM |

State recorded TGI for all listed compounds.
1. CC(C)(C)[Si](C)(C)OCC1OC(n2cc(F)c(=O)[nH]c2=O)CC1O[Si](C)(C)C(C)(C)C (stereo not given)
2. CN(CCCCCl)P(=O)(OCc1ccc([N+](=O)[O-])o1)C(F)(F)c1ccc(CC(=O)N[C@@H](CC(=O)O)C(=O)N[C@@H](Cc2ccc(C(F)(F)P(=O)(OCc3ccc([N+](=O)[O-])o3)N(C)CCCCCl)cc2)C(N)=O)cc1 (stereo not given in full)
3. COC(=O)C1=C(C(=O)OC)SC(=C2c3ccsc3-c3sccc32)S1
4. COC(=O)c1cc(C)n2c1CS[C@@H]2c1ccccc1
5. COc1ccc2nc3cc(Cl)ccc3c(NCCC(=O)OCC(O)C(O)C(O[C@H](C)C(=O)NC(C)C(=O)NC(CCC(N)=O)C(=O)OCc3ccccc3)C(C=O)NC(C)=O)c2c1 (stereo not given in full)

1. 15.9 µM
2. > 100 µM
3. > 100 µM
4. > 100 µM
5. > 100 µM
